Recorded pIC50 values for a group of compounds are listed next.
Target Desc: JH2 domain of human Tyk2 (Homo sapiens)
Construct: 10×His-tagged TYK2 JH2 domain (amino acid 575-876)
Sequence (P29597 575-876): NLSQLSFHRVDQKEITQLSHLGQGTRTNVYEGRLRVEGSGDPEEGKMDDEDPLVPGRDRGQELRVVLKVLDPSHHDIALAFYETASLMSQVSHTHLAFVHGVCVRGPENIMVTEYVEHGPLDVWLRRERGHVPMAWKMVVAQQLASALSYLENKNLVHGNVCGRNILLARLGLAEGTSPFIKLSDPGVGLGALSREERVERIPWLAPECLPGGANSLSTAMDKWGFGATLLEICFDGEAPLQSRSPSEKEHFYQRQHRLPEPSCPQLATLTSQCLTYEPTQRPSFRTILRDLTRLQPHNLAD
Measurement Description: JH2 biochemical assay (TR-FRET probe displacement)
Format: binding
Condition: JH2 biochemical assay
pIC50: −log10 of the molar value.

Compound: CC(=O)Nc1cc2c(cn1)C1(CC1)CN2c1cc(C)cc(N2CC(O)C2)n1 [Example 193]
pIC50: 7.00 to 8.00
--
Compound: CCC1(C#N)CN(c2nc(C)cc(N3CC4(CC4)c4cnc(NC(C)=O)cc43)n2)C1 [Example 219]
pIC50: 7.00 to 8.00
--
Compound: COC1CC(c2cc(N3CC4(CC4)c4cnc(NC(C)=O)cc43)nc(C(C)(F)F)n2)C1 (stereo not shown) [Example 23]
pIC50: ≥ 8.00
--
Compound: COc1cccc(N2CC3(CC3)c3cnc(NC(C)=O)cc32)n1 [Example 313]
pIC50: 7.00 to 8.00
